# methodNotes: Apparent permeability across apical to basolateral side in LLC-PK1 cells at 2 uM incubated for 2 hrs by LC/MS/MS method
# Assay type: ADME, cell-based, Sus scrofa
# appliedConditions: pig

| smilesRepresentation | Papp A→B at 2 h, 2 µM |
| --- | --- |
| Cc1ccc([C@@H](c2cn(C3CCCC3)nc2-c2ccccc2C)n2cccc(N3C[C@H](C(=O)NC45CCC(CC4)NC5=O)N(C)C3=O)c2=O)cc1 | 1.3 ×10⁻⁶ cm/s |

----------
The entries below are paired with their reported pIC50.
# methodNotes: Inhibition of N-terminal 6 His-tagged HHV6 protease (2 to 230 residues) expressed in Escherichia coli BL21 cells using 5FAM-KPSILNASLTPETVKK as peptide substrate incubated for 3 hrs by fluorescence based analysis
# Set-up: species or system Human betaherpesvirus 6
pIC50: −log10 of the molar value. Peptide text beside a SMILES is read from it.
readoutType: pIC50

| compound | censorSymbol | reportedMeasurement |
| --- | --- | --- |
| CC[C@H](C)[C@H](NC(C)=O)C(=O)N[C@H](C(=O)NCC(=O)N[C@@H](Cc1c[nH]cn1)C(=O)N[C@@H](Cc1ccc(O)cc1)C(=O)N[C@@H](Cc1c[nH]c2ccccc12)C(N)=O)[C@@H](C)O (Ac-ITGHYW-NH2) | < | 4.00 |
| CN1C(=O)N(c2cccn([C@H](c3ccccc3)c3cn(C4CCCC4)nc3-c3ccccc3)c2=O)C[C@@H]1C(=O)Nc1ccc[nH]c1=O | < | 4.00 |
| Cc1ccc([C@@H](c2cn(C3CCCC3)nc2-c2ccccc2C)n2cccc(N3C[C@H](C(=O)NC45CCC(CC4)NC5=O)N(C)C3=O)c2=O)cc1 | = | 6.48 |
| Cc1cccc(C(c2cn(C3CCCC3)nc2-c2ccccc2)n2cccc(N3C[C@H](C(=O)NC45CCC(CC4)NC5=O)N(C)C3=O)c2=O)c1 (mixture of isomers) | = | 4.57 |
| CC[C@H](C)[C@H](NC(=O)[C@H](Cc1ccccc1)NC(C)=O)C(=O)N[C@H](C(=O)NCC(=O)N[C@@H](Cc1c[nH]cn1)C(=O)N[C@@H](Cc1ccc(O)cc1)C(=O)N[C@@H](Cc1c[nH]c2ccccc12)C(=O)N[C@H](C(=O)N[C@@H](CCCNC(=N)N)C(=O)N[C@@H](Cc1ccccc1)C(=O)N[C@@H](CC(C)C)C(=O)N1CCC[C@H]1C(=O)N[C@@H](CS)C(=O)NCC(N)=O)C(C)C)[C@@H](C)O (Ac-FITGHYWVRFLPCG-NH2) | > | 7.12 |
| Cc1ccccc1C(c1cn(C2CCCC2)nc1-c1ccccc1)n1cccc(N2C[C@H](C(=O)NC34CCC(CC3)NC4=O)N(C)C2=O)c1=O (mixture of isomers) | = | 4.62 |
| Cc1ccc(C(c2cn(C3CCCC3)nc2-c2ccccc2)n2cccc(N3C[C@H](C(=O)NC45CCC(CC4)NC5=O)N(C)C3=O)c2=O)cc1 (mixture of isomers) | = | 5.30 |
| Cc1ccc([C@H](c2cn(C3CCCC3)nc2-c2ccccc2C)n2cccc(N3C[C@H](C(=O)NC45CCC(CC4)NC5=O)N(C)C3=O)c2=O)cc1 | = | 4.30 |
| CN1C(=O)N(c2cccn([C@@H](c3ccccc3)c3cn(C4CCCC4)nc3-c3ccccc3)c2=O)C[C@@H]1C(=O)Nc1ccc[nH]c1=O | = | 4.74 |
| CN1C(=O)N(c2cccn([C@@H](c3ccccc3)c3cn(C4CCCC4)nc3-c3ccccc3)c2=O)C[C@@H]1C(=O)NC12CCC(CC1)NC2=O | = | 4.96 |

----------
# Tested on: Human betaherpesvirus 5
# methodNotes: Inhibition of amino terminal GST tagged HCMV protease (1 to 256 residues) expressed in Escherichia coli BL21 (DE3) cells using 5-carboxyfluorescein [FAM]-RGVVNASSRLAK as peptide substrate at 99 uM incubated for 3 hrs by fluorescence based analysis relative to control
Peptide text beside a SMILES is read from it.

| molecule | inhibition, % |
| --- | --- |
| CN1C(=O)N(c2cccn([C@@H](c3ccccc3)c3cn(C4CCCC4)nc3-c3ccccc3)c2=O)C[C@@H]1C(=O)Nc1ccc[nH]c1=O | 32 |
| CC[C@H](C)[C@H](NC(C)=O)C(=O)N[C@H](C(=O)NCC(=O)N[C@@H](Cc1c[nH]cn1)C(=O)N[C@@H](Cc1ccc(O)cc1)C(=O)N[C@@H](Cc1c[nH]c2ccccc12)C(N)=O)[C@@H](C)O (Ac-ITGHYW-NH2) | 2 |
| CN1C(=O)N(c2cccn([C@H](c3ccccc3)c3cn(C4CCCC4)nc3-c3ccccc3)c2=O)C[C@@H]1C(=O)Nc1ccc[nH]c1=O | 2 |
| Cc1ccc([C@H](c2cn(C3CCCC3)nc2-c2ccccc2C)n2cccc(N3C[C@H](C(=O)NC45CCC(CC4)NC5=O)N(C)C3=O)c2=O)cc1 | 39 |

----------
# methodNotes: Cytotoxicity against HFF cells assessed as inhibition in cell viability incubated for 5 days by luminescence based analysis
# Type: toxicity
# appliedConditions: human, time 5 day
readoutType: CC50 at 120 h (µM)

| smilesRepresentation | valueUnits | censorSymbol | reportedMeasurement |
| --- | --- | --- | --- |
| CN1C(=O)N(c2cccn([C@@H](c3ccccc3)c3cn(C4CCCC4)nc3-c3ccccc3)c2=O)C[C@@H]1C(=O)Nc1ccc[nH]c1=O | µM | = | 53 |
| CN1C(=O)N(c2cccn([C@H](c3ccccc3)c3cn(C4CCCC4)nc3-c3ccccc3)c2=O)C[C@@H]1C(=O)Nc1ccc[nH]c1=O | µM | = | 89 |
| CN1C(=O)N(c2cccn([C@@H](c3ccccc3)c3cn(C4CCCC4)nc3-c3ccccc3)c2=O)C[C@@H]1C(=O)NC12CCC(CC1)NC2=O | µM | > | 25 |
| Cc1ccc([C@@H](c2cn(C3CCCC3)nc2-c2ccccc2C)n2cccc(N3C[C@H](C(=O)NC45CCC(CC4)NC5=O)N(C)C3=O)c2=O)cc1 | µM | = | 51 |
